# Test system: DeltatarO mutant
# test details: S. aureus survival, RN4220 and DeltatarO strains – OD600, teichoic acid synthesis inhibitors, primary screen (AID 463173)
# recorded conditions: S. aureus RN4220 wild type/DeltatarO growth, OD600, 18 h, stronger effect = lower value, screened at 18.75 µg/mL (by protocol)
About 4,300 (8.3%) of roughly 52,000 compounds were called active. For the sample, actives were picked, then their nearest neighbours and some compounds at random.
Fulfilled if survival is below 60%. Not fulfilled if not; exact matches included in Not fulfilled.

// below: answered compounds
{"compound": "Cc1ccc(S(=O)(=O)c2nc(-c3ccco3)oc2SC(C)C)cc1", "discrete label": "Fulfilled"}
{"compound": "CC(Sc1oc(-c2cccs2)nc1S(=O)(=O)c1ccccc1)c1ccccc1 (stereo unspecified)", "discrete label": "Fulfilled"}
{"compound": "Cc1ccc(CSc2oc(-c3ccco3)nc2S(=O)(=O)c2ccc(Br)cc2)cc1", "discrete label": "Fulfilled"}

survival strictly < 60% for this compound? `CCOc1ccc(-c2nc(Cn3ccn4nc(-c5ccc(OCC)c(Cl)c5)cc4c3=O)c(C)o2)cc1`
Not fulfilled

Entry CCC1(C)CC(=O)c2c(ccc3oc(C(=O)NCc4ccccc4)c(C)c23)O1 (stereo unspecified) please
Fulfilled
